# assayInfo: Toxicity analysis of test compounds in 2.2.15 cells (neutral red dye uptake)
# Format: cell-based
# conditions: human, 100 μM
Listing of recorded viability at 100 µM by entry.
readoutKind: viability at 100 µM (%)

1) Nc1nc(N)c2ncn([C@H]3CO[C@@H](CO)O3)c2n1 ... 88
2) Nc1ccn([C@H]2CC[C@@H](CO)O2)c(=O)n1 [2',3'-ddC, 2',3'-dideoxycytosine, reference compound] ... 97
3) Nc1nc2c(ncn2[C@H]2CO[C@@H](CO)O2)c(=O)[nH]1 ... 88
